Test system: HRV serotype 10
Test: Antirhinoviral H1-HeLa cell culture assay (XTT), HRV-10
Format: cell-based, human rhinovirus
Details: Human rhinovirus sp., H1-HeLa cells
observation.type: EC50

INSERT INTO assay_data (structure, endpoint_result) VALUES
  ('CCOC(=O)/C=C/[C@H](C[C@@H]1CCNC1=O)NC(=O)[C@H](Cc1ccc(F)cc1)NC(=O)[C@@H](NC(=O)c1cc(C)on1)C(C)C', '50 nM');

###

Test system: HRV serotype 38
Test: Antirhinoviral H1-HeLa cell culture assay (XTT), HRV-38
Format: cell-based
Conditions: Human rhinovirus sp., H1-HeLa cells
Catalogue of EC50 values
observation.type: EC50

INSERT INTO assay_data (molecule, endpoint_result) VALUES
  ('CCOC(=O)/C=C/[C@H](C[C@@H]1CCNC1=O)NC(=O)[C@H](Cc1ccc(F)cc1)NC(=O)[C@@H](NC(=O)c1cc(C)on1)C(C)C [(A-5)]', '130 nM'),
  ('CCOC(=O)/C=C/[C@H](C[C@@H]1CCNC1=O)NC(=O)[C@H](Cc1ccc(F)cc1)NC(=O)[C@@H](NC(=O)c1cc(C)on1)C(C)(C)C [(A-7)]', '170 nM');

###

Tested on: HRV serotype 9
Experiment: Antirhinoviral H1-HeLa cell culture assay (XTT), HRV-9
Type: cell-based
Settings: Human rhinovirus sp., H1-HeLa cells
observation.type: EC50 (nM)

INSERT INTO measurements (compound, observation_type, endpoint_result) VALUES
  ('CCOC(=O)/C=C/[C@H](C[C@@H]1CCNC1=O)NC(=O)[C@H](Cc1ccc(F)cc1)NC(=O)[C@@H](NC(=O)c1cc(C)on1)C(C)C [(A-5)]', 'EC50', 40);

Values compiled from patent US6906198B1.
